- experiment: Clearance in Sprague-Dawley rat at 2 mg/kg, iv
- Assay type: ADME, organism-based
- Parameters: dose 2 mg/kg, route intravenous
- condition-details: in vivo
Field: clearance. Provide a value for each of the molecules that follow.
Express it in mL/min/kg; write the number only.

stdin: GET /values?readout=clearance&item= COC(=O)c1c(F)cccc1-c1ccc([C@@H](C)Nc2nccc(Cl)c2NC(=O)CC#N)cc1
stdout: 11

stdin: // next record C[C@@H](Nc1nccc(Cl)c1NC(=O)CC#N)c1ccc(-c2cccc(F)c2C#N)cc1
stdout: 8.3

stdin: Note, next up: C[C@@H](Nc1nccc(Cl)c1NC(=O)CC#N)c1ccc(-c2cccc(F)c2-c2nnn(C)n2)cc1
stdout: 9

stdin: Next: COC(=O)c1ccc(Cl)cc1-c1ccc([C@@H](C)Nc2nccc(Cl)c2NC(=O)CC#N)cc1
stdout: 25

stdin: Okay, and Cc1nc(-c2c(F)cccc2-c2ccc([C@@H](C)Nc3nccc(Cl)c3NC(=O)CC#N)cc2)no1 ?
stdout: 4.9

stdin: Param item: COC(=O)c1ccc(C)cc1-c1ccc([C@@H](C)Nc2nccc(C)c2NC(=O)CC#N)cc1
stdout: 42

stdin: One more molecule: COC(=O)c1c(Cl)cccc1-c1ccc([C@@H](C)Nc2nccc(Cl)c2NC(=O)CC#N)cc1
stdout: 24

stdin: Again, but for Cc1noc(-c2c(F)cccc2-c2ccc([C@@H](C)Nc3nccc(Cl)c3NC(=O)CC#N)cc2)n1
stdout: 9.5

stdin: Subsequent entry: C[C@@H](Nc1nccc(Cl)c1NC(=O)CC#N)c1ccc(-c2cccc(F)c2C(F)(F)F)cc1
stdout: 36

---

- experiment: Half life in Sprague-Dawley rat at 2 mg/kg, iv
- Format: ADME, organism-based
- Set-up: dose 2 mg/kg, route intravenous
- condition-details: in vivo
Hi there, I'd appreciate the recorded half-life for every entry that follows.
Value expressed in h; do not type the unit.

stdin: Request the reported half-life associated with COC(=O)c1c(F)cccc1-c1ccc([C@@H](C)Nc2nccc(Cl)c2NC(=O)CC#N)cc1
stdout: 2.1

stdin: Likewise for Cc1nc(-c2c(F)cccc2-c2ccc([C@@H](C)Nc3nccc(Cl)c3NC(=O)CC#N)cc2)no1 ?
stdout: 12.9

stdin: How about this compound: C[C@@H](Nc1nccc(Cl)c1NC(=O)CC#N)c1ccc(-c2cccc(F)c2C(F)(F)F)cc1
stdout: 1.8

stdin: Now consider COC(=O)c1ccc(C)cc1-c1ccc([C@@H](C)Nc2nccc(C)c2NC(=O)CC#N)cc1 .
stdout: 0.6

---

Kindly supply the reported bioavailability values for the records listed here.
- experiment: Oral bioavailability in mongrel dog at 3 mg/kg, po
- Format: ADME, organism-based, Canis lupus familiaris
- condition-details: in vivo
Write the value in % as a bare number.

stdin: // bioavailability lookup, key: COC(=O)c1ccc(Cl)cc1-c1ccc([C@@H](C)Nc2nccc(Cl)c2NC(=O)CC#N)cc1
stdout: 2

stdin: Another molecule to check: COC(=O)c1c(Cl)cccc1-c1ccc([C@@H](C)Nc2nccc(Cl)c2NC(=O)CC#N)cc1
stdout: 23

stdin: And what about the molecule Cc1nc(-c2c(F)cccc2-c2ccc([C@@H](C)Nc3nccc(Cl)c3NC(=O)CC#N)cc2)no1 ?
stdout: 25

stdin: Next molecule up: COC(=O)c1c(F)cccc1-c1ccc([C@@H](C)Nc2nccc(Cl)c2NC(=O)CC#N)cc1
stdout: 34

stdin: How about this molecule: C[C@@H](Nc1nccc(Cl)c1NC(=O)CC#N)c1ccc(-c2cccc(F)c2-c2nnn(C)n2)cc1
stdout: 69

stdin: Try this molecule too: Cc1noc(-c2c(F)cccc2-c2ccc([C@@H](C)Nc3nccc(Cl)c3NC(=O)CC#N)cc2)n1
stdout: 14

---

- experiment: Half life in mongrel dog at 1 mg/kg, iv
- Assay type: ADME, organism-based, Canis lupus familiaris
- Parameters: dose 1 mg/kg, route intravenous
- condition-details: in vivo
I'd appreciate it if you marked entries class 1 when half-life is lower than 2 h and class 0 when it is not.

stdin: Does the reported half-life of the following compound sit strictly below 2 h? COC(=O)c1ccc(Cl)cc1-c1ccc([C@@H](C)Nc2nccc(Cl)c2NC(=O)CC#N)cc1
stdout: class 1

stdin: Try this compound too: COC(=O)c1c(Cl)cccc1-c1ccc([C@@H](C)Nc2nccc(Cl)c2NC(=O)CC#N)cc1
stdout: class 0

stdin: Follow-up entry: COC(=O)c1c(F)cccc1-c1ccc([C@@H](C)Nc2nccc(Cl)c2NC(=O)CC#N)cc1
stdout: class 0

stdin: Moving on to the next compound: C[C@@H](Nc1nccc(Cl)c1NC(=O)CC#N)c1ccc(-c2cccc(F)c2-c2nnn(C)n2)cc1
stdout: class 0

stdin: Please do the same for Cc1noc(-c2c(F)cccc2-c2ccc([C@@H](C)Nc3nccc(Cl)c3NC(=O)CC#N)cc2)n1 as well.
stdout: class 0

---

- target-of-assay: B2 bradykinin receptor (Homo sapiens)
- Sequence (P30411 whole entry): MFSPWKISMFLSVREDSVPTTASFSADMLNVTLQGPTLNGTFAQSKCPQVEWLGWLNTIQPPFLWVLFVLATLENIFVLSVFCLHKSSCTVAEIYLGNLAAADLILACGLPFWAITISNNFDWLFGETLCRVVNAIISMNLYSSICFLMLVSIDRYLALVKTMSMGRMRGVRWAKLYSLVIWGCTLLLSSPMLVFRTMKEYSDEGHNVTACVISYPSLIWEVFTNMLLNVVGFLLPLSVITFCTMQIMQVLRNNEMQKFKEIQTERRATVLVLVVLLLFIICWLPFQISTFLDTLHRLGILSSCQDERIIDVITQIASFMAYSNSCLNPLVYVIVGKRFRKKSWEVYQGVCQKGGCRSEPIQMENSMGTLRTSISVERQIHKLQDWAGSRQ
experimental-readout: Ki

stdin: Form field: reported Ki of COC(=O)c1ccc(C)cc1-c1ccc([C@@H](C)Nc2nccc(C)c2NC(=O)CC#N)cc1
stdout: > 10 µM

---

- experiment: Clearance in mongrel dog at 1 mg/kg, iv
- Assay type: ADME, organism-based, Canis lupus familiaris
- Set-up: dose 1 mg/kg, route intravenous
- condition-details: in vivo
experimental-readout: clearance (mL/min/kg)
Expressed in mL/min/kg, but write only the number.

stdin: Any idea what clearance was measured for COC(=O)c1c(Cl)cccc1-c1ccc([C@@H](C)Nc2nccc(Cl)c2NC(=O)CC#N)cc1 ?
stdout: 8.7

stdin: For Cc1noc(-c2c(F)cccc2-c2ccc([C@@H](C)Nc3nccc(Cl)c3NC(=O)CC#N)cc2)n1 then?
stdout: 7.3

stdin: Try this molecule too: C[C@@H](Nc1nccc(Cl)c1NC(=O)CC#N)c1ccc(-c2cccc(F)c2-c2nnn(C)n2)cc1
stdout: 2.4

stdin: Same question, COC(=O)c1ccc(Cl)cc1-c1ccc([C@@H](C)Nc2nccc(Cl)c2NC(=O)CC#N)cc1 this time
stdout: 5.5

stdin: Moving on to Cc1nc(-c2c(F)cccc2-c2ccc([C@@H](C)Nc3nccc(Cl)c3NC(=O)CC#N)cc2)no1
stdout: 5.9

stdin: For COC(=O)c1c(F)cccc1-c1ccc([C@@H](C)Nc2nccc(Cl)c2NC(=O)CC#N)cc1 then?
stdout: 9

---

- experiment: Half life in Sprague-Dawley rat at 2 mg/kg, iv
- Assay type: ADME, organism-based
- Design: dose 2 mg/kg, route intravenous
- condition-details: in vivo
Label key: Criterion met means half-life under 8 h; Criterion not met means half-life of 8 h or more.

stdin: Please let me know if C[C@@H](Nc1nccc(Cl)c1NC(=O)CC#N)c1ccc(-c2cccc(F)c2C#N)cc1 shows half-life below 8 h.
stdout: Criterion met

stdin: Param item: Cc1noc(-c2c(F)cccc2-c2ccc([C@@H](C)Nc3nccc(Cl)c3NC(=O)CC#N)cc2)n1
stdout: Criterion not met

stdin: Try this compound next: COC(=O)c1ccc(Cl)cc1-c1ccc([C@@H](C)Nc2nccc(Cl)c2NC(=O)CC#N)cc1
stdout: Criterion met

stdin: Also need COC(=O)c1c(Cl)cccc1-c1ccc([C@@H](C)Nc2nccc(Cl)c2NC(=O)CC#N)cc1 , thanks.
stdout: Criterion met

---

For each of the compounds below, state its IC50.
- target-of-assay: B1 bradykinin receptor (Oryctolagus cuniculus)
- Sequence (P48748 whole entry): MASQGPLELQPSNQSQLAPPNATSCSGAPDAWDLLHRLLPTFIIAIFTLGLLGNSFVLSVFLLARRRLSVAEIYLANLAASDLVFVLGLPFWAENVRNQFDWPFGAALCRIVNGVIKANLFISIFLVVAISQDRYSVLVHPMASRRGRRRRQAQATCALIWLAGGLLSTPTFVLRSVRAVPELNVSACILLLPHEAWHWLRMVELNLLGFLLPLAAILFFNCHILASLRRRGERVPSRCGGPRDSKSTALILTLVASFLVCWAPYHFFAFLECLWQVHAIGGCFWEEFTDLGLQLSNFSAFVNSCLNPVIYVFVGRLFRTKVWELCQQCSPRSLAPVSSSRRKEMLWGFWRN
- experiment: Activity at rabbit bradykinin B1 receptor assessed by FLIPR assay
- Type: functional

stdin: Recorded IC50 for Cc1noc(-c2c(F)cccc2-c2ccc([C@@H](C)Nc3nccc(Cl)c3NC(=O)CC#N)cc2)n1 , please?
stdout: 12.3 nM (antagonist)

stdin: COC(=O)c1c(F)cccc1-c1ccc([C@@H](C)Nc2nccc(Cl)c2NC(=O)CC#N)cc1 , same question.
stdout: 2.4 nM (antagonist)

stdin: Okay, and COC(=O)c1c(Cl)cccc1-c1ccc([C@@H](C)Nc2nccc(Cl)c2NC(=O)CC#N)cc1 ?
stdout: 7.2 nM (antagonist)

stdin: // query: C[C@@H](Nc1nccc(Cl)c1NC(=O)CC#N)c1ccc(-c2cccc(F)c2-c2nnn(C)n2)cc1
stdout: 3.9 nM (antagonist)

---

- target-of-assay: B1 bradykinin receptor (Homo sapiens)
- Sequence (P46663 whole entry): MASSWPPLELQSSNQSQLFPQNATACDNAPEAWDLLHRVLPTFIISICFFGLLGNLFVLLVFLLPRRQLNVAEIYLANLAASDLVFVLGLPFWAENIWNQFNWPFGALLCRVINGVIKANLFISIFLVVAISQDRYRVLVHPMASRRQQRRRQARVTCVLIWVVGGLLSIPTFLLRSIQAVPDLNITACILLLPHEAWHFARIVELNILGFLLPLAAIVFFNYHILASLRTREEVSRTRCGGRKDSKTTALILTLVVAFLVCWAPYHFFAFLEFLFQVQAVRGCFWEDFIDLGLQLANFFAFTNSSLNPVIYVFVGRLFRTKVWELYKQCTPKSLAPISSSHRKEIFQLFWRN
- experiment: Antagonist activity at bradykinin B1 receptor expressed in CHO cells assessed as inhibition of des-arg10-kallidin-induced increase in cytosolic calcium level by FLIPR assay
- Type: functional, cell-based
experimental-readout: IC50

stdin: Any idea what IC50 came out for C[C@@H](Nc1nccc(Cl)c1NC(=O)CC#N)c1ccc(-c2cccc(F)c2-c2nnn(C)n2)cc1 on B1 bradykinin receptor (Homo sapiens)?
stdout: 1.17 nM (antagonist)

stdin: Next up: COC(=O)c1c(Cl)cccc1-c1ccc([C@@H](C)Nc2nccc(Cl)c2NC(=O)CC#N)cc1
stdout: 0.85 nM (antagonist)

stdin: Same for Cc1noc(-c2c(F)cccc2-c2ccc([C@@H](C)Nc3nccc(Cl)c3NC(=O)CC#N)cc2)n1
stdout: 0.94 nM (antagonist)

stdin: Request: COC(=O)c1ccc(C)cc1-c1ccc([C@@H](C)Nc2nccc(C)c2NC(=O)CC#N)cc1
stdout: 1.4 nM (antagonist)

stdin: Lookup COC(=O)c1ccc(Cl)cc1-c1ccc([C@@H](C)Nc2nccc(Cl)c2NC(=O)CC#N)cc1
stdout: 1.5 nM (antagonist)

stdin: Next compound up: Cc1nc(-c2c(F)cccc2-c2ccc([C@@H](C)Nc3nccc(Cl)c3NC(=O)CC#N)cc2)no1
stdout: 0.78 nM (antagonist)

stdin: Follow-up entry: COC(=O)c1c(F)cccc1-c1ccc([C@@H](C)Nc2nccc(Cl)c2NC(=O)CC#N)cc1
stdout: 0.25 nM (antagonist)
